test_protocol: modulators of glucocorticoid suppression of NF-kB, cell-based, luciferase, IL-1B stimulus, dexamethasone (AID 624486);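 also: 100% = mean signal of vehicle control wells on the plate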
measurement_setup: NF-kB luciferase reporter, IL-1B + dexamethasone, luminescence; actives lie on both sides, concentration not given here
In this section we review reported percent of negative control (+Dex) values for a set of compounds.
Please state the figure in %; there is no need to write the unit.

Please give measured percent of negative control (+Dex) of the following entry: Nc1c(C(=O)c2cccc(-c3ccncc3)c2)cnn1-c1ccc(F)cc1
95.5

Provide measured percent of negative control (+Dex) value, entry: Cc1ccc2c(c1)c(C1=C(c3cn(C)c4ccccc34)C(=O)NC1=O)cn2C
102

Provide one value: measured percent of negative control (+Dex) of COC(=O)c1ccc2c(c1)/C(=C\c1cc(Br)c(O)c(Br)c1)C(=O)N2
110

Cited source for all entries: PubChem BioAssay
